System: IGROV1 ovarian
Assay protocol: NCI-60 one-dose screen, 48 h (100 = growth as untreated, 0 = no growth, -100 = all killed)
Condition context: 10 µM unless noted
About 83,000 compounds went through this panel and 20% of them were active in at least one assay; those are over-represented in the sample as a whole. Calls of active or inactive are those of the source. The calls were made as follows: active = growth percent below 10; inactive = the rest.
Result type: growth

INSERT INTO assay_data (molecular_string, result) VALUES
  ('O=C1Nc2ccccc2C1(c1c[nH]c2ccccc12)c1c[nH]c2ccccc12', '8.3% (active)'),
  ('CC1=C2[C@@H](CC1)[C@]1(C)O[C@@](C3CCCCC3)(C[C@H]1OC(=O)CO)[C@H]2OC(=O)/C=C/c1ccccc1', '85.1% (inactive)'),
  ('O=C1Nc2ccccc2/C1=C\c1c[nH]c2ccc(Br)cc12', '61.5% (inactive)');

###

System: OVCAR-4 ovarian
Assay protocol: NCI-60 one-dose screen, 48 h (100 = growth as untreated, 0 = no growth, -100 = all killed)
Condition context: 10 µM unless noted
This is part of a sample that, as a whole, favours compounds with a hit. Of some 83,000 tested, about 20% had one in any assay.
Would you please tag the item fulfilled when its growth is 50% or above, and not fulfilled when it is below?

INSERT INTO assay_data (molecular_string, test_target, label_class) VALUES
  ('COc1ccc(/C=C(/c2ccccc2)[N+](=O)[O-])c(OC)c1', 'OVCAR-4 ovarian', 'not fulfilled'),
  ('Oc1c(CN2CCC(N3CCCCC3)CC2)cc(Cc2cc(CN3CCC(N4CCCCC4)CC3)c(O)c3ncccc23)c2cccnc12', 'OVCAR-4 ovarian', 'not fulfilled'),
  ('C/C(=N\O)c1ccc(NC(=O)CSc2nnc(-c3cc(-c4ccc(S(C)(=O)=O)cc4)nc4ccccc34)n2-c2ccccc2)cc1', 'OVCAR-4 ovarian', 'fulfilled'),
  ('CN(C)c1ccc(-c2nc(-c3ccccc3)c(-c3ccccc3)[nH]2)cc1', 'OVCAR-4 ovarian', 'fulfilled'),
  ('O=C(Nc1ccccc1O)c1ccc(CNC(=O)c2ccsc2Nc2ccnc(C(F)(F)F)c2)cc1', 'OVCAR-4 ovarian', 'not fulfilled');

###

Test system: BT-549 breast
Assay protocol: NCI-60 one-dose screen, 48 h (100 = growth as untreated, 0 = no growth, -100 = all killed)
Condition context: 10 µM unless noted
Compounds without any hit were thinned out: in the full panel of roughly 83,000, 20% have a hit.
The following compounds are listed with their measured growth values.
Result type: growth (%)

INSERT INTO results (compound, unit, quantitative_result) VALUES
  ('COc1ccc(C(O)c2cc3c(N)c(C(=O)Nc4cccc(Cl)c4C)sc3nc2C)cc1 (stereo not given)', '%', 17.7),
  ('CNC(=O)c1cc(Oc2cccc3nc(NC(=O)Nc4cc(C(F)(F)F)ccc4Cl)ccc23)ccn1', '%', 85),
  ('CCN(CC)c1ccc(CNc2cc(C)nc3ccccc23)cc1', '%', 71.6),
  ('CCOc1c(OC)cc2c(c1O)C(=O)N[C@@H]1[C@@H](O)[C@@H](O)[C@H](O)C[C@@H]21', '%', 99.6),
  ('Cn1c(=O)c2[nH]c(SCC(=O)Nc3ccc(C(=O)/C=C/c4ccccc4Cl)cc3)nc2n(C)c1=O', '%', 83.3),
  ('O=S1(=O)C=C(c2ccccc2)C(c2ccccc2)=C1', '%', 79.6),
  ('CC1(C)CC[C@]23CC[C@]4(C)[C@H](CC[C@@H]5[C@@]6(C)C/C(=C/c7ccncc7)C(=O)C(C)(C)[C@@H]6CC[C@]54C)[C@H]2[C@H]1OC3', '%', 99.3),
  ('O=C(/C=C/C12c3ccccc3C(c3ccccc31)C1C(=O)NC(=O)C12)c1ccc(Br)cc1 (stereo not given)', '%', 46.1),
  ('Cc1cc(Nc2ccc(C(=O)N3CCCC3)cc2)nc(NCCCNc2ccnc3cc(Cl)ccc23)n1', '%', 84.6),
  ('COc1ccc(/C(C)=C(/c2ccc(OCCCN(C)C)cc2)c2ccc(OC(=O)c3ccccc3)cc2)cc1', '%', 87),
  ('CC(=O)Oc1ccc(OC(C)=O)c2ccccc12', '%', 96.8),
  ('CC1(C)OB(O)c2cc(-c3nc4ccc5[nH]ncc5c4c4c3CCCC4)ccc21', '%', 74.9),
  ('O=C(Cn1nnc2ccccc21)N/N=C/c1c[nH]c2ccccc12', '%', 52.4),
  ('C=C(C)[C@@H]1CC[C@]2(C(N)=O)CC[C@]3(C)[C@H](CC[C@@H]4[C@@]5(C)CC[C@H](OCCC#N)C(C)(C)[C@@H]5CC[C@]43C)[C@@H]12', '%', 97.8),
  ('O=C(Cc1cccc(OC(F)(F)F)c1)Nc1ccc(CCCCc2nnc(NC(=O)Cc3ccccn3)s2)nn1', '%', 48.7),
  ('C=C(CNCCO)[C@@H]1CC[C@]2(CO)CC[C@]3(C)[C@H](CC[C@@H]4[C@@]5(C)CCC(N)C(C)(C)[C@@H]5CC[C@]43C)[C@@H]12 (stereo not given in full)', '%', 65),
  ('O=C(CI)NC(=O)NC(=O)NCc1ccccc1', '%', 37.2),
  ('Cc1nnc(-c2ccc3c(c2)nc(/C=C/c2ccccc2)n3C2CCCCC2)o1', '%', 81),
  ('C=CC(=O)Nc1ccc(Oc2nccc(Nc3nnc(-c4ccc(C)cc4)s3)n2)cc1', '%', 73.4),
  ('CCN(CC)CCCN1C(=O)c2c(c(C)c3c(oc4ccc(O)cc43)c2C)C1=O', '%', 96.6),
  ('CCN1CCN(c2cc(C)nc(N(CCNc3ccnc4cc(Cl)ccc34)Cc3ccc4c(c3)OCO4)n2)CC1', '%', 36.4),
  ('COc1cc(C(=O)c2c(-c3ccccc3)oc3c(OC)cccc23)cc(OC)c1OC', '%', -5.83),
  ('N#Cc1nc(-c2ccccc2)oc1S(=O)(=O)N1CCN(c2ccc(F)cc2)CC1', '%', 59.7),
  ('Cc1ccc(C(=O)c2ccc(CC(=O)N=Nc3c(O)[nH]c4ccc(Br)cc34)n2C)cc1', '%', 100),
  ('COc1ccc2c(c1)c(/C(O)=C1\COC(=O)C1=O)cn2Cc1ccc(F)cc1', '%', 110),
  ('Nc1nc2c(c3ncccc13)C(c1cccc(Cl)c1)Cc1ncccc1-2 (stereo not given)', '%', 38.7),
  ('O=C1Nc2ccccc2/C1=C\c1c[nH]c2ccc(Br)cc12', '%', 116),
  ('C[C@H](C(=O)N(CCc1ccc(Cl)c(Cl)c1)Cc1cncs1)[C@@H]1CC[C@H](C[C@H](C)n2cc(CN3CCC(c4ccc(Cl)cc4)CC3)nn2)O1', '%', 95.1),
  ('CCCn1nc(C(=O)N(C)Cc2ccccc2)c2c1CCC(N1CCc3ccccc31)C2 (stereo not given)', '%', 94.8),
  ('FC(F)(F)c1ccc(Cn2cc(CSc3nc4ccccc4s3)nn2)cc1', '%', 92.3),
  ('O=c1nc(-c2ccccc2)c2cc(-c3ccc(C(F)(F)F)nc3)ccc2[nH]1', '%', 99.3),
  ('CCCCCCCCCCCCCCCCCC1=NC(C)(C)CN1CC(C)O (stereo not given)', '%', 101),
  ('[2H]C([2H])([2H])Oc1ccc(F)cc1/C=C/C(=O)/C=C(/C=C/c1cc(F)ccc1OC([2H])([2H])[2H])OB(F)F', '%', 87.7),
  ('C=C1C(=O)O[C@H]2[C@H]1CC/C(COC(=O)/C=C/C(=O)OC/C1=C/CC[C@@]3(C)O[C@H]3[C@H]3OC(=O)C(=C)[C@@H]3CC1)=C\CC[C@@]1(C)O[C@@H]21', '%', 93.9),
  ('COc1ccc(/C=C2\CN(C(=O)C(Cl)Cl)C/C(=C\c3ccc(OC)cc3)C2=O)cc1', '%', -19.3);

Sourced from PubChem BioAssay (NCI)
